Source listed as ChEMBL document CHEMBL2424611.

Assay: Apparent intrinsic clearance in human liver microsomes
Type: ADME, Microsome
Details: read-out: CLH(app)
Reported Endpoint: microsomal CLint
Field: value (include unit after the number)

Task: Give microsomal CLint for the following compound: Cc1ccc(CC(=O)N2CCC3(CC2)CN([C@@H]2CCc4cc(-c5ncccn5)ccc42)C3)nc1
Result: 22 µL/min/mg

---

Target: Muscarinic acetylcholine receptor M2 (Homo sapiens)
Experiment: Displacement of N-methyl [3H]-scopolamine from recombinant human muscarinic acetylcholine receptor M2 expressed in CHO cells after 2 hrs by liquid scintillation counting
Format: cell-based
Conditions: cho
Reported Endpoint: pKi

> print(dat)
                              smiles.record  reported.endpoint  result
1  COc1ccc(CC(=O)N2CCC3(CC2)CN([C@@H]2CCc4cc(-c5nccs5)ccc42)C3)nc1                pKi  < 4.25

Task: Give pKi for the following compound: Cc1ccc(CC(=O)N2CCC3(CC2)CN([C@@H]2CCc4cc(-c5ncccn5)ccc42)C3)nc1
Result: < 4.56

Task: Give pKi for the following compound: COc1ccc(CC(=O)N2CCC3(CC2)CN([C@@H]2CCc4cc(-n5nccn5)ccc42)C3)cc1
Result: < 4.26

Task: Give pKi for the following compound: COc1ccc(CC(=O)N2CCC3(CC2)CN([C@@H]2CCc4cc(-c5ncc(C)cn5)ccc42)C3)nc1
Result: < 4.17

Task: Give pKi for the following compound: COc1ccc(CC(=O)N2CCC3(CC2)CN([C@@H]2CCc4cc(-n5nccn5)ccc42)C3)nc1
Result: < 4.42

Task: Give pKi for the following compound: CCc1ccc(CC(=O)N2CCC3(CC2)CN([C@@H]2CCc4cc(-n5nccn5)ccc42)C3)nc1
Result: < 4.59

Task: Give pKi for the following compound: CCc1cnc(-c2ccc3c(c2)CC[C@H]3N2CC3(CCN(C(=O)Cc4ccc(OC)cn4)CC3)C2)nc1
Result: < 4.17

---

Reported values of pKb for individual entries
Biological target: Growth hormone secretagogue receptor type 1 (Homo sapiens)
Assay: Inverse agonist activity at human GHS-R1a expressed in tetracycline inducible HEK293 cells incubated for 24 hrs prior to europium-labeled GTP addition measured after 90 mins by DELFIA assay
Type: cell-based
// keep it numeric: no unit symbol after the value

> print(dat)
                              smiles.record  reported.endpoint  number
1  COc1ccc(CC(=O)N2CCC3(CC2)CN([C@@H]2CCc4cc(-c5ncc(C)cn5)ccc42)C3)nc1                pKb    7.07
2  COc1ccc(CC(=O)N2CCC3(CC2)CN([C@@H]2CCc4cc(-n5nccn5)ccc42)C3)cc1                pKb    8.27
3  CCc1ccc(CC(=O)N2CCC3(CC2)CN([C@@H]2CCc4cc(-c5ncccn5)ccc42)C3)nc1                pKb    7.13
4  Cc1ccc(CC(=O)N2CCC3(CC2)CN([C@@H]2CCc4cc(-c5ncccn5)ccc42)C3)nc1                pKb    6.98
5  COc1ccc(CC(=O)N2CCC3(CC2)CN([C@@H]2CCc4cc(-c5ncccn5)ccc42)C3)nc1                pKb     7.6

Read the next record carefully.
Task: Give pKb for the following compound: Cc1ccc(CC(=O)N2CCC3(CC2)CN([C@@H]2CCc4cc(-n5nccn5)ccc42)C3)nc1
Result: 7.23

---

Molecular target: Muscarinic acetylcholine receptor M2 (Homo sapiens)
Test: Binding affinity to muscarinic acetylcholine receptor M2 (unknown origin)
Reported Endpoint: Ki

Task: # assay system Muscarinic acetylcholine receptor M2 (Homo sapiens): give Ki of Cc1cn2cc(CC(=O)N3CCC4(CC3)CN(Cc3ccc(-n5nccn5)cc3Cl)C4)nc2s1
Result: 269 nM

---

Reported values of pKb for individual entries
Molecular target: Growth hormone secretagogue receptor type 1 (Homo sapiens, UniProt Q92847)
Sequence (Q92847 whole entry): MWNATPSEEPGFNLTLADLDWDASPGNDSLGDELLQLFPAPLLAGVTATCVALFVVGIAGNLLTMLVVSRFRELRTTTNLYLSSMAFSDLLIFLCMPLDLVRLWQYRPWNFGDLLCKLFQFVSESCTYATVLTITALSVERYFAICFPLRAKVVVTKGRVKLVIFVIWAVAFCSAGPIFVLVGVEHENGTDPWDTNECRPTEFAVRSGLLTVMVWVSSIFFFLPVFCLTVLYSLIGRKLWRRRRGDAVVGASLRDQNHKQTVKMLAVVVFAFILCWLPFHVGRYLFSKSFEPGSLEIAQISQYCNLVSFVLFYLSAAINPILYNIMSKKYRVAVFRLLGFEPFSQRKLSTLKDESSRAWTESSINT
Experiment: Inverse agonist activity at human GHS-R1a expressed in tetracycline inducible HEK293 cells incubated for 24 hrs prior to europium-labeled GTP addition measured after 90 mins by DELFIA assay
Assay type: cell-based
// keep it numeric: no unit symbol after the value

> print(dat)
                              smiles.record  reported.endpoint  number
1  CCc1ccc(CC(=O)N2CCC3(CC2)CN([C@@H]2CCc4cc(-n5nccn5)ccc42)C3)nc1                pKb    7.38
2  CCc1cnc(-c2ccc3c(c2)CC[C@H]3N2CC3(CCN(C(=O)Cc4ccc(OC)cn4)CC3)C2)nc1                pKb    7.37

Task: Give pKb for the following molecule: COc1ccc(CC(=O)N2CCC3(CC2)CN([C@@H]2CCc4cc(-c5nccs5)ccc42)C3)nc1
Result: 7.4

Task: Give pKb for the following molecule: COc1ccc(CC(=O)N2CCC3(CC2)CN([C@@H]2CCc4cc(-n5nccn5)ccc42)C3)nc1
Result: 7.57

---

Reported values of IC50 for individual entries
Molecular target: Growth hormone secretagogue receptor type 1 (Homo sapiens)
Experiment: Displacement of [125I]-ghrelin from human GHS-R1a expressed in tetracycline inducible HEK293 cells after 8 hrs by liquid scintillation counting
Assay type: cell-based
Please respond with the number in nM and leave the unit unwritten.

Example entries begin here.
> print(dat)
                                   compound  reported.endpoint  number
1  COc1ccc(CC(=O)N2CCC3(CC2)CN(C2CCc4cc(-c5ncccn5)ccc42)C3)nc1 (racemic)               IC50    37.2
2  COc1ccc(CC(=O)N2CCC3(CC2)CN(C2CCc4cc(-c5nccs5)ccc42)C3)nc1 (centres undefined)               IC50    30.2
3  COc1ccc(CC(=O)N2CCC3(CC2)CN([C@H]2CCc4cc(-c5ncccn5)ccc42)C3)nc1               IC50    1100

Read the next record carefully.
Task: # assay system Growth hormone secretagogue receptor type 1 (Homo sapiens): give IC50 of COc1ccc(CC(=O)N2CCC3(CC2)CN(Cc2ccc(-c4ncccn4)cc2Cl)C3)cc1
Result: 15.8

---

Molecular target: Growth hormone secretagogue receptor type 1 (Homo sapiens, UniProt Q92847)
Test: Displacement of [125I]-ghrelin from human GHS-R1a expressed in tetracycline inducible HEK293 cells after 8 hrs by liquid scintillation counting
Reported Endpoint: Ki (nM)
Please respond with the number in nM and leave the unit unwritten.

Example entries begin here.
> print(dat)
                                   compound  number
1  COc1ccc(CC(=O)N2CCC3(CC2)CN([C@H](C)c2ccc(-c4ncccn4)cc2)C3)nc1   25100
2  COc1ccc(CC(=O)N2CCC3(CC2)CN([C@@H]2CCc4cc(-n5nccn5)ccc42)C3)cc1    7.41

Task: Give Ki for the following compound: COc1ccc(CC(=O)N2CCC3(CC2)CN(C(C)c2ccc(-c4ncccn4)cc2)C3)nc1 (centres undefined)
Result: 1700

Task: Give Ki for the following compound: COc1ccc(CC(=O)N2CCC3(CC2)CN([C@@H]2CCc4cc(-c5nccs5)ccc42)C3)nc1
Result: 3.98

Task: Give Ki for the following compound: COc1ccc(CC(=O)N2CCC3(CC2)CN([C@H]2CCc4cc(-c5nccs5)ccc42)C3)nc1
Result: 1380

Task: Give Ki for the following compound: COc1ccc(CC(=O)N2CCC3(CC2)CN([C@@H](C)c2ccc(-c4ncccn4)cc2)C3)nc1
Result: 1120

Task: Give Ki for the following compound: COCC(c1ccc(-c2ncccn2)cc1)N1CC2(CCN(C(=O)Cc3ccc(OC)cn3)CC2)C1 (centres undefined)
Result: 3630

Task: Give Ki for the following compound: COc1ccc(CC(=O)N2CCC3(CC2)CN([C@@H]2CCc4cc(-c5ncccn5)ccc42)C3)nc1
Result: 29.5

Task: Give Ki for the following compound: CCc1ccc(CC(=O)N2CCC3(CC2)CN([C@@H]2CCc4cc(-c5ncccn5)ccc42)C3)nc1
Result: 15.5

---

Target: Muscarinic acetylcholine receptor M2 (Homo sapiens, UniProt P08172)
Sequence (P08172 whole entry): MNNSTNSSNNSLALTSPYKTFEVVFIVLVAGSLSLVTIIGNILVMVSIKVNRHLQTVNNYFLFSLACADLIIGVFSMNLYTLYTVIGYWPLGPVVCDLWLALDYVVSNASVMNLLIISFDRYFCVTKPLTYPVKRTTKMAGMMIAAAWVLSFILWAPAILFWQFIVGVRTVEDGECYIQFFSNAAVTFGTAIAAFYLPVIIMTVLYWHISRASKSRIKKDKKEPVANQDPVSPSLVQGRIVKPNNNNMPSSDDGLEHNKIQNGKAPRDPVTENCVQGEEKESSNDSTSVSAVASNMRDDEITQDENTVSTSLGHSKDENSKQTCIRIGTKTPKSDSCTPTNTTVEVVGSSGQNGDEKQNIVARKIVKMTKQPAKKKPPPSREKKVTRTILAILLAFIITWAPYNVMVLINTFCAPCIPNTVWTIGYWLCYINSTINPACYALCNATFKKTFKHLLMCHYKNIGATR
Experiment: Displacement of N-methyl [3H]-scopolamine from recombinant human muscarinic acetylcholine receptor M2 expressed in CHO cells after 2 hrs by liquid scintillation counting
Type: cell-based
Reported Endpoint: Ki (nM)
Please respond with the number in nM and leave the unit unwritten.

> print(dat)
                                   compound  reported.endpoint  number
1  COc1ccc(CC(=O)N2CCC3(CC2)CN([C@H]2CCc4cc(-c5ncccn5)ccc42)C3)nc1                 Ki     407
2  COc1ccc(CC(=O)N2CCC3(CC2)CN([C@H](C)c2ccc(-c4ncccn4)cc2)C3)nc1                 Ki   20000
3  CCc1ccc(CC(=O)N2CCC3(CC2)CN([C@@H]2CCc4cc(-c5ncccn5)ccc42)C3)nc1                 Ki   28200
4  COCC(c1ccc(-c2ncccn2)cc1)N1CC2(CCN(C(=O)Cc3ccc(OC)cn3)CC2)C1 (stereo unspecified)                 Ki    7080
5  COc1ccc(CC(=O)N2CCC3(CC2)CN([C@H](c2ccc(-c4ncccn4)cc2)C(C)C)C3)nc1                 Ki     912

Task: # assay system Muscarinic acetylcholine receptor M2 (Homo sapiens, UniProt P08172): give Ki of COc1ccc(CC(=O)N2CCC3(CC2)CN([C@H]2CCc4cc(-c5nccs5)ccc42)C3)nc1
Result: 1550

Task: # assay system Muscarinic acetylcholine receptor M2 (Homo sapiens, UniProt P08172): give Ki of Cc1ccc(CC(=O)N2CCC3(CC2)CN([C@@H]2CCc4cc(-n5nccn5)ccc42)C3)nc1
Result: 21900

Task: # assay system Muscarinic acetylcholine receptor M2 (Homo sapiens, UniProt P08172): give Ki of COc1ccc(CC(=O)N2CCC3(CC2)CN(C(c2ccc(-c4ncccn4)cc2)C(C)C)C3)nc1 (stereo unspecified)
Result: 151

Task: # assay system Muscarinic acetylcholine receptor M2 (Homo sapiens, UniProt P08172): give Ki of COc1ccc(CC(=O)N2CCC3(CC2)CN(C2CCc4cc(-c5ncccn5)ccc42)C3)nc1 (racemic)
Result: 1620

Task: # assay system Muscarinic acetylcholine receptor M2 (Homo sapiens, UniProt P08172): give Ki of COc1ccc(CC(=O)N2CCC3(CC2)CN(Cc2ccc(-c4ncccn4)cc2Cl)C3)cc1
Result: 1950

Task: # assay system Muscarinic acetylcholine receptor M2 (Homo sapiens, UniProt P08172): give Ki of COc1ccc(CC(=O)N2CCC3(CC2)CN(C2CCc4cc(-c5nccs5)ccc42)C3)nc1 (stereo unspecified)
Result: 871
